procedureText: inhibitors of TNFa-induced VCAM-1 surface display, cell-based, plate reader, pooled HUVEC, TNFa stimulus (AID 454)
runParameters: HUVEC TNFa-induced VCAM-1 surface immunofluorescence,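 compound tested at 5 µM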
The whole screen tested about 10,000 compounds, of which about 25 (0.2%) were called active.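 The calls were made as follows: active = compound among top-ranked inhibitors of TNF-induced VCAM-1 adhesion protein staining, with the hit upheld by image or statistical review; inactive = the rest, including hits rejected on review.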 The full list was thinned out, with actives kept by preference.
Choose one outcome from this list and give only that: 1.0 (active), 0.0 (inactive)

                            structuresmiles  cat
0  CCc1ccccc1NC(=O)CN(c1cccc(OC)c1)S(C)(=O)=O  0.0
1  Cn1nc(-c2ccc(N3CCCCC3)c(NC(=O)c3ccco3)c2)c2ccccc2c1=O  1.0
2  COc1ccc(-c2cc(C(F)(F)F)nc(SCCC(=O)N3CCOCC3)n2)cc1  0.0
3   Cc1ccc2nc(NC(=O)Cn3cc4c(n3)CCCCC4)sc2c1  0.0

Could you kindly confirm the outcome this assay logged for CCOC(=O)CS(=O)(=O)c1nc(-c2ccccc2)cc(C(F)(F)F)n1 ?
0.0

What do we get for CCc1nc(C)c(C#N)c2cc(OC)c(OC)cc12 ?
0.0

All values here come from PubChem BioAssay AID454.
